Experiment: Maximum absorption wavelength (λmax) after color development, spectrophotometer MCPD3000
Assay type: physicochemical
Details: photochromic cured product by kneading method, 1 mm thick thiourethane, 0.106 mmol per 100 g monomers
measured endpoint: Maximum absorption wavelength (nm)

COc1ccc(C2(c3ccc(OC)cc3)C=Cc3c4c(c5cc(N(c6ccccc6)c6ccccc6)c(OC)cc5c3O2)-c2ccccc2C4(C)C)cc1    514
CCCCCCOc1ccc(C2(c3ccc(OC)cc3)C=Cc3c4c(c5cc(N(c6ccc(C)cc6)c6ccc(OC)cc6)c(OC)cc5c3O2)-c2ccccc2C42CC(C)(C)CC(C)(C)C2)cc1 (stereo not drawn)    527
CCCOc1ccc(C2(c3ccc(OC)cc3)C=Cc3c4c(c5cc(N(C)c6ccccc6)c(C)cc5c3O2)-c2ccc(C)cc2C4(CCCCOC)CCCCOC)cc1 (stereo not drawn)    562

* * *

Experiment: High-temperature color development rate (A35/A23×100), temperature dependency
Format: physicochemical
Details: binder sheet (binder method)
Excerpt: • [1] Maximum Absorption Wavelength (λmax): The maximum absorption wavelength after color development, measured using a spectrophotometer (instantaneous multichannel photodetector MCPD3000) manufactured by Otsuka Electronics Co., Ltd. was used as an indicator for the color tone during the color development. • [2] […]
measured endpoint: A35/A23 *100 (%)

COc1ccc(C2(c3ccc(OC)cc3)C=Cc3c4c(c5cc(N6CCc7ccccc76)c(OC)cc5c3O2)-c2ccccc2C4(C)C)cc1 [Formula (28A)]    74
CCCOc1ccc(C2(c3ccc(OCCC)cc3)C=Cc3c4c(c5cc(N6CCc7ccccc76)c(OC)cc5c3O2)-c2ccc(-c3ccc(C)cc3)cc2C42CCCCCCC2)cc1 [Formula (35A)]    78
COCCOCCOCCC1(CCOCCOCCOC)c2ccccc2-c2c1c1c(c3cc(OC)c(N4CCc5cc(F)ccc54)cc23)OC(c2ccc(OC)cc2)(c2ccc(OC)cc2)C=C1 [Formula (50A)]    70
COc1ccc(C2(c3ccc(OC)c(OC)c3)C=Cc3c4c(c5cc(N6CCc7ccccc76)c(OC)cc5c3O2)-c2ccccc2C4(CCC(F)(F)F)CCC(F)(F)F)cc1 (centres unmarked) [Formula (67A)]    66
CCCCCCOc1ccc(C2(c3ccc(OCCCCCC)cc3)C=Cc3c4c(c5cc(N6CCc7cc(OC)ccc76)c(OC)cc5c3O2)-c2ccc(-c3ccc(C(F)(F)F)cc3)cc2C42CC(C)(C)CC(C)(C)C2)cc1 [Formula (48A)]    62

* * *

Assay: High-temperature color development rate (A35/A23×100), temperature dependency
Type: physicochemical
Settings: binder sheet (binder method)
measured endpoint: A35/A23 *100 (%)

COc1ccc(C2(c3ccc(OC)cc3)C=Cc3c4c(c5cc(N6CCc7cc(C)ccc76)c(OC)cc5c3O2)-c2ccccc2C4(C)C)cc1 [Formula (52A)]    75
CCC1(CC)c2cc(C)ccc2-c2c1c1c(c3cc(C)c(N4CCc5ccccc54)cc23)OC(c2ccc(C)cc2)(c2ccc(OC)cc2)C=C1 (stereo not drawn) [Formula (42A)]    75
COCCCC1(CCCOC)c2ccccc2-c2c1c1c(c3cc(OC)c(N4CC(C)c5ccccc54)cc23)OC(c2ccc(OC)cc2)(c2ccc(OC)cc2)C=C1 (stereo not drawn) [Formula (39A)]    75

* * *

Experiment: Maximum absorption wavelength (λmax) after color development, spectrophotometer MCPD3000
Format: physicochemical
Conditions: photochromic laminate by coating method, 40 µm photochromic layer on thiourethane lens, 0.25 mmol compound per 100 g monomers
Description: • [1] Maximum Absorption Wavelength (λmax): The maximum absorption wavelength after color development, measured using a spectrophotometer (instantaneous multichannel photodetector MCPD3000) manufactured by Otsuka Electronics Co., Ltd. was used as an indicator for the color tone during the color development. • [2] […]
measured endpoint: Maximum absorption wavelength (nm)

CCCOc1ccc(C2(c3ccc(OCCC)cc3)C=Cc3c4c(c5cc(N6CCOc7cc(C)ccc76)c(OC)cc5c3O2)-c2ccc(-c3ccc(C(F)(F)F)cc3)cc2C4(CCOC)CCOC)cc1    513
COc1ccc(C2(c3ccc(OC)cc3)C=Cc3c4c(c5cc(N(C)c6ccc(F)cc6)c(OC)cc5c3O2)-c2ccccc2C4(C)C)cc1    496
CCCC1(CCC)c2cc(C)ccc2-c2c1c1c(c3cc(OC)c(N(C)c4ccccc4)cc23)OC(c2ccc(OC)cc2)(c2ccc(OC)cc2)C=C1    493
CCCC1(CCC)c2ccccc2-c2c1c1c(c3cc(OC)c(N(c4ccccc4)c4ccccc4)cc23)OC(c2ccc(C)cc2)(c2ccc(N(C)c3ccccc3)cc2)C=C1 (centres unmarked)    530
COc1ccc(C2(c3ccc(OC)cc3)C=Cc3c4c(c5cc(N(c6ccccc6)c6ccccc6)c(OC)cc5c3O2)-c2ccccc2C4(C)C)cc1    510

* * *

Assay: High-temperature color development rate (A35/A23×100), temperature dependency
Type: physicochemical
Conditions: photochromic laminate prepared by coating method
measured endpoint: A35/A23 *100 (%)

CCC1(CC)CCC2(CC1)c1cc(-c3ccccc3)ccc1-c1c2c2c(c3cc(OC)c(N4CCc5ccccc54)cc13)OC(c1ccc(C)cc1)(c1ccc(N(C)c3ccccc3)cc1)C=C2 (centres unmarked) [Formula (60A)]    71
COc1ccc(C2(c3ccc(OC)cc3)C=Cc3c4c(c5cc(N6CCc7ccccc76)c(-c6ccc(OC)cc6OC)cc5c3O2)-c2ccccc2C4(C)C)cc1 [Formula (I), reference compound]    71
CCC1(CC)c2cc(C)ccc2-c2c1c1c(c3cc(C)c(N4CCc5ccccc54)cc23)OC(c2ccc(C)cc2)(c2ccc(OC)cc2)C=C1 (centres unmarked) [Formula (42A)]    75
CCCOc1ccc(C2(c3ccc(OCCC)cc3)C=Cc3c4c(c5cc(N6CCc7ccccc76)c(OC)cc5c3O2)-c2ccc(-c3ccc(C)cc3)cc2C42CCCCCCC2)cc1 [Formula (35A)]    78
COCCCC1(CCCOC)c2ccccc2-c2c1c1c(c3cc(OC)c(N4CC(C)c5ccccc54)cc23)OC(c2ccc(OC)cc2)(c2ccc(OC)cc2)C=C1 (centres unmarked) [Formula (39A)]    75

* * *

Experiment: 23°C color optical density (A23): absorbancy difference ε(240)-ε(0) after 240 s light irradiation at 23°C
Assay type: physicochemical
Settings: cured product by kneading method, 1 mm, 240 s irradiation
measured endpoint: A23 (-)

COc1ccc(C2(c3ccc(OC)cc3)C=Cc3c4c(c5cc(N(C)c6ccccc6)c(OC)cc5c3O2)-c2ccccc2C4(C)C)cc1    1.19 -
COc1ccc(C2(c3ccc(OC)cc3)C=Cc3c4c(c5cc(N(C)c6ccc(F)cc6)c(OC)cc5c3O2)-c2ccccc2C4(C)C)cc1    1.20 -
CCCOc1ccc(C2(c3ccc(OCCC)cc3)C=Cc3c4c(c5cc(N(C)c6ccc(C)cc6)c(OC)cc5c3O2)-c2ccccc2C4(CCCCOC)CCCCOC)cc1    1.24 -
CCCCCCOc1ccc(C2(c3ccc(OC)cc3)C=Cc3c4c(c5cc(N(c6ccc(C)cc6)c6ccc(OC)cc6)c(OC)cc5c3O2)-c2ccccc2C42CC(C)(C)CC(C)(C)C2)cc1 (stereo not shown)    1.22 -

Q: Indicate its recorded A23 (-); the molecule in question is COc1ccc(C2(c3ccc(N4CCOCC4)cc3)C=Cc3c4c(c5cc(N6CCCc7ccccc76)c(OC)cc5c3O2)-c2ccc(C)cc2C4(CCCC(F)(F)F)CCCC(F)(F)F)cc1 (stereo not shown)
Ans: 1.20 -

* * *

Experiment: Residual rate (A90/A0×100) after 90 h accelerated deterioration in xenon weather meter X25, color developing durability
Assay type: physicochemical
Conditions: binder sheet (binder method); after 90 h accelerated deterioration
measured endpoint: Residual rate (%)

COc1ccc(C2(c3ccc(OC)cc3)C=Cc3c4c(c5cc(N6CCCCC6)c(OC)cc5c3O2)-c2ccccc2C4(C)C)cc1 [Formula (E), reference compound]    68
COCCCC1(CCCOC)c2ccccc2-c2c1c1c(c3cc(OC)c(N4CC(C)c5ccccc54)cc23)OC(c2ccc(OC)cc2)(c2ccc(OC)cc2)C=C1 (stereo not shown) [Formula (39A)]    85
CCC1(CC)c2cc(C)ccc2-c2c1c1c(c3cc(C)c(N4CCc5ccccc54)cc23)OC(c2ccc(C)cc2)(c2ccc(OC)cc2)C=C1 (stereo not shown) [Formula (42A)]    85
COc1ccc(C2(c3ccc(OC)c(OC)c3)C=Cc3c4c(c5cc(N6CCc7ccccc76)c(OC)cc5c3O2)-c2ccccc2C4(CCC(F)(F)F)CCC(F)(F)F)cc1 (stereo not shown) [Formula (67A)]    83

* * *

Test: High-temperature color development rate (A35/A23×100), temperature dependency
Assay type: physicochemical
Conditions: binder sheet (binder method)
measured endpoint: A35/A23 *100 (%)

COc1ccc(C2(c3ccc(N(c4ccccc4)c4ccccc4)cc3)C=Cc3c4c(c5cc(N6CCc7ccccc76)c(OC)cc5c3O2)-c2ccccc2C42CCC3(CCCCC3)CC2)cc1 (stereo not drawn) [Formula (57A)]    70
CCC1(CC)CCC2(CC1)c1cc(OC(F)(F)F)ccc1-c1c2c2c(c3cc(OC)c(N4CCc5ccccc54)cc13)OC(c1ccc(OC)cc1)(c1ccc(OCCCO[Si](C)(C)CC[Si](O[Si](C)(C)C)(O[Si](C)(C)C)O[Si](C)(C)C)cc1)C=C2 (stereo not drawn) [Formula (74A)]    64
CCCOc1ccc(C2(c3ccc(OC)cc3)C=Cc3c4c(c5cc(N6CCc7ccccc76)c(C)cc5c3O2)-c2ccc(-c3ccc(F)c(F)c3F)cc2C4(CCCCOC)CCCCOC)cc1F (stereo not drawn) [Formula (78A)]    68
COc1ccc(C2(c3ccc(OC)cc3)C=Cc3c4c(c5cc(N6CCc7ccccc76)c(-c6ccc(OC)cc6OC)cc5c3O2)-c2ccccc2C4(C)C)cc1 [Formula (I), reference compound]    72
COc1ccc(C2(c3ccc(OC)cc3)C=Cc3c4c(c5cc(N6CCCCC6)c(OC)cc5c3O2)-c2ccccc2C4(C)C)cc1 [Formula (E), reference compound]    70
CCCC1(C)c2cc(Oc3ccccc3)ccc2-c2c1c1c(c3cc(OC)c(N4CCc5ccccc54)cc23)OC(c2ccc(OC)cc2)(c2ccc3c(c2)CCO3)C=C1 (stereo not drawn) [Formula (70A)]    77
